Quick reference: protein stability index of the listed items.
B1: TRIM15 (parent)
chain: LLARLRELEQQIWKERDEYITKVS

- Variants of: B1
- protocol: protein stability index of a GFP-peptide fusion (GPS, HEK-293T) (PSI 1-6); higher = more stable;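 also: lentivirally expressed fusions sorted by FACS into six bins by GFP to DsRed ratio, PSI derived from sequencing read proportions per bin multiplied by bin number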
- measurement-setup: c terminus: a fixed tail appended
Give the figure only, with no unit attached.

Look over these answered cases.
seq	protein stability index
LLARLRELEQQIWKERDEYITKVC [S24C]	2.05
LLARLRELEQQSWKERDEYITKVS [I12S]	1.35
LLARLRELEQQIWKERDESITKVS [Y19S]	1.71
LLARLRELEQQIWKERDEYLTKVS [I20L]	1.33
LLARLRELEQVIWKERDEYITKVS [Q11V]	2.12
LLPRLRELEQQIWKERDEYITKVS [A3P]	1.99
LLARLRELEKQIWKERDEYITKVS [Q10K]	2.02
LLARLRELEQQIWKQRDEYITKVS [E15Q]	1.47
LLARLRPLEQQIWKERDEYITKVS [E7P]	2.57
LLARLRELEQQYWKERDEYITKVS [I12Y]	2.13

## Task Which protein stability index value is on record for LLARLRELEQQIFKERDEYITKVS [W13F] ?
## Result 2.83

## Task Which protein stability index value is on record for LLARLRELEQQIWKERDQYITKVS [E18Q] ?
## Result 1.18

## Task Which protein stability index value is on record for LLARLRELEQQIWAERDEYITKVS [K14A] ?
## Result 1.24

src = the supplement of paper PMC10567573
